Experiment summary: Cytotoxicity against human HuH6 cells
Assay type: cell-based
Quantity measured: CC50

Looking up NC(=O)c1nc(C#Cc2ccc(C(F)(F)F)cc2)n([C@@H]2O[C@H](CO)[C@@H](O)[C@H]2O)n1 , I see its CC50 listed as > 120 µM

Looking up NC(=O)c1nc(C#Cc2ccc(F)cc2)n(COCCO)n1 , I see its CC50 listed as 132 µM

Reported CC50 of NC(=O)c1ncn([C@@H]2O[C@H](CO)[C@@H](O)[C@H]2O)n1 : > 100 µM

Sure, the documented CC50 for NC(=O)c1nc(C#Cc2ccccc2)n(COCCO)n1 is > 170 µM

What the record says about COC(=O)c1nc(C#CC2(O)CCCC2)n([C@@H]2O[C@H](COC(C)=O)[C@@H](OC(C)=O)[C@H]2OC(C)=O)n1 : CC50 is > 105 µM

The compound identified as NC(=O)c1nc(C#Cc2ccc(C(F)(F)F)cc2)n(COCCO)n1 registered its CC50 at 87.5 µM

Cited source: ChEMBL document CHEMBL1140901
